testSystem: Macrophage scavenger receptor types I and II (Mus musculus) (UniProt P30204)
Sequence (whole entry): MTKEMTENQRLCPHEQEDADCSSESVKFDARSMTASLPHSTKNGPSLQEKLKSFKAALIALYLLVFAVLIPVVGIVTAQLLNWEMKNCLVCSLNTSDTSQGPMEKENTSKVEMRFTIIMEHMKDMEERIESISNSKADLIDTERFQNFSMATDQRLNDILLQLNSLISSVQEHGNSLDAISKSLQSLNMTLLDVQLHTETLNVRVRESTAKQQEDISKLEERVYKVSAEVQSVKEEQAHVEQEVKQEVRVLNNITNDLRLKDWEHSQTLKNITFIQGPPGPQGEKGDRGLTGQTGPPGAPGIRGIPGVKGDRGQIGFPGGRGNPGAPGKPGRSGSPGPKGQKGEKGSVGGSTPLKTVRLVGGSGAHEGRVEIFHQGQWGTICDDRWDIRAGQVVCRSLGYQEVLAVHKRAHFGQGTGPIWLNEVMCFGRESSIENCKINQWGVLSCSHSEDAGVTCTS
assayMethodText: Activity against acetyl-LDLbinding to scavenger receptor as percent inhibition of incorporation of DiI-acetyl-LDL into mouse peritoneal macrophages at 30 uM
Provide the reported inhibition of each item.
The reply should read as a number followed by its unit.

Here's what some known entries look like.
> print(dat)
                                   compound      metric  assayvalue
1  CCCCCCCCCCCCCCCCCC(=O)NC(COS(=O)(=O)O)C(=O)NCCCCCCCCCCCCCC (stereo not given)  inhibition       43.8%
2  CCCCCCCCCCCCCCCCCC(=O)Nc1cc(NC(=O)CCCCCCCCCCCCCCCCC)cc(S(=O)(=O)O)c1  inhibition       46.2%
3  CCCCCCCCCCCCCC(=O)Nc1ccc(S(=O)(=O)O)c(NC(=O)CCCCCCCCCCCCC)c1  inhibition         48%
4  CCCCCCCCCCCCCCCCCCCCCC(=O)Nc1ccc(S(=O)(=O)O)c(NC(=O)CCCCCCCCCCCCCCCCCCCCC)c1  inhibition         48%

QUERY: Can you share its inhibition? I mean this compound: CCCCCCCCCCCCCCCCCC(=O)Nc1ccc(S(=O)(=O)O)c(NC(=O)CCCCCCCCCCCCCCCCC)c1
RESULT: 72.5%
